experiment: Cytotoxicity against human SW1398 cells assessed as cell growth inhibition incubated for 72 hrs by SRB assay; assay type: functional, cell-based; details: SW1398, 72 h
property-name: pIC50
Formally, pIC50 is defined as -log10 of the concentration c, with c in mol/L.

Exercise: // query pIC50 value for entry "O=C(NC(=O)n1c(-c2ccccc2)nc2ccc(Br)cc2c1=O)c1cccc2c(=O)c3ccccc3[nH]c12"
Key: 5.22

###

Reported IC50 is given for each of the following compounds.
test system: P388; assay: Cytotoxicity against mouse P388 cells; format: functional, cell-based
Report the value in µM with no unit label.

Answered examples (2):
compound-string | result-units | IC50
CN(C)CCn1c(=O)c2cc(N)cc3c(=O)c4ccccc4n(c1=O)c32 | µM | 63
CC(=O)Nc1cc2c(=O)c3ccccc3n3c(=O)n(CCN(C)C)c(=O)c(c1)c23 | µM | 0.86

Next up:
Exercise: // query IC50 value for entry "CC(=O)Nc1ccc2[nH]c3c(C(=O)NCCN(C)C)cccc3c(=O)c2c1"
Key: 22
